These entries and their values trace back to patent US20250066503A1.

Catalogue of Kd readings, one per entry.
system.tested: T1, human GPC3 (human, UniProt P51654 25-563)
T1 construct: range 25-563; soluble analyte; also called soluble human GPC3; glypican 3
assay: SPR
quantity.measured: Kd (nM)

INSERT INTO measurements (binder, numeric_readout) VALUES
  ('GCH054-G1dh/none-Hi-Kn010G3/L0222-k0 (antibody, V domains shown, one-arm) VH: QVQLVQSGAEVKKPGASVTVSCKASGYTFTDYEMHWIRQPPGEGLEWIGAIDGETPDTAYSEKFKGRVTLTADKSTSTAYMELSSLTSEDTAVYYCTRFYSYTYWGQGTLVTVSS VL: DIVMTQSPLSLPVTPGEPASISCRSSQSPVHSNRNTYIQWYQQKPGQAPRLLIYKVSNRFSGVPDRFSGSGSGTDFTLKISRVEAEDVGVYYCYQGTQVPYTFGQGTKLEIKR', 0.0315),
  ('GCH064-G1dh/none-Hi-Kn010G3/L0000-k0 (antibody, V domains shown, one-arm) VH: QVQLVQSGAEVKKPGASVKVSCKASGYTFTDYEMHWIRQPPGQGLEWIGAIDGKTPDTAYSQKFKGRVTLTADKSTSTAYMELSSLRSEDTAVYYCTRFYSYTYWGQGTLVTVSS VL: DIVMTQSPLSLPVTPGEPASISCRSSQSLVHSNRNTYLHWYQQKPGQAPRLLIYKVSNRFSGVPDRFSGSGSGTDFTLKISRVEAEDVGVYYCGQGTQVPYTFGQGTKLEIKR', 4.14),
  ('GCH057-G1dh/none-Hi-Kn010G3/L0215-k0 (antibody, V domains shown, one-arm) VH: QVQLVQSGAEVKKPGASVTVSCKASGYTFTDYEMHWIRQPPGEGLEWIGAIDGETPDTAYSEKFEGRVTLTADKSTSTAYMELSSLTSEDTAVYYCTRFYSYTYWGQGTLVTVSS VL: DIVMTQSPLSLPVTPGEPASISCRSSQPPVHSNRNTYIHWYQQKPGQAPRLLIYKVSNRFSGVPDRFSGSGSGTDFTLKISRVEAEDVGVYYCGQGTQVPYTFGQGTKLEIK', 1.83);
